# SYSTEM_TESTED: T1, hSIRPβ1 displayed on U2OS cells (Homo sapiens, UniProt O00241)
# T1 construct: signal-regulatory protein β1 (SIRPβ1), human; source: U2OS, transiently expressing, on live cells
# ASSAY_OVERVIEW: immunostaining of cells or tissue; live-cell immunofluorescence on U2OS cells expressing the target; unlabeled Nbs (1 nM to 100 nM) with Cy5-labeled anti-VHH, 1 h at 37°C
# CONDITIONS: one partner purified
OUTCOME_MEASURE: binding result

>>> recorded_result("hSIRPα Nb S8 (VHH, selected against the entire extracellular portion of hSIRPα; source: E. coli XL-1, purified (IMAC, SEC); not shown: His tag (from the IMAC purification)) VHH: QVQLVESGGGLVQPGGSLRLSCADSEFRLDEYATGWFRQAPGKEREGVACISRSGSNTKYTDSVKGRFTISRDNAKKTVYLQMNSLKPEDTAVYYCAADLTSHYLSCSSYTDYNSWGQGTQVTVSS")
"binds"
>>> recorded_result("hSIRPα Nb S41 (VHH, selected against domain 1 of hSIRPα; source: E. coli XL-1, purified (IMAC, SEC); not shown: His tag (from the IMAC purification)) VHH: HVQLVESGGGLVQPGGSLRLSCAASGETLDYYAIGYVRQAPGKEREGVSCISSRGDNTNYADSVKGRFTISRDNANNTVYLQMNSLKPEDTAVYYCVAIKDSWQNYYCSVGWVEYDVWGQGTQVTVSS")
"binds"
>>> recorded_result("hSIRPα Nb S45 (VHH, selected against domain 1 of hSIRPα; source: E. coli XL-1, purified (IMAC, SEC); not shown: His tag (from the IMAC purification)) VHH: HVQLVESGGGLVQPGGSLRLSCAARGFSFRDSAMSWARQAPGKGLEWVGAIYSDGSTVYEKSVKGRFTISRDNAKNTMYLQMHSLKPEDSARYYCAPKGVVADEGDYSGQGTLVTVSS")
"binds"
>>> recorded_result("hSIRPα Nb S33 (VHH, selected against the entire extracellular portion of hSIRPα; source: E. coli XL-1, purified (IMAC, SEC); not shown: His tag (from the IMAC purification)) VHH: EVQLVESGGGLVQPGGSLRLSCTTSGFTLDYYSVGWFRQAPGKEREGVSCITASGSSTNYANSVKGRFTISRDKVKNTVYLQMSSLKPEDTAVYYCAAEPCTVVAGILQAPTSDFGSWGQGTQVTVSS")
"binds"
>>> recorded_result("hSIRPα Nb S44 (VHH, selected against domain 1 of hSIRPα; source: E. coli XL-1, purified (IMAC, SEC); not shown: His tag (from the IMAC purification)) VHH: QVQLQESGGGLVQPGGSLRLACAASGFTFSSYDMSWVRQAPGKGLEWVSDIKSGGGRTYYADSVKGRFTISRDNAKNTVYLQMNSLKPEDTAVYYCGSLDNSGAYTGGGQGSQVTVSS")
"binds"
>>> recorded_result("hSIRPα Nb S7 (VHH, selected against the entire extracellular portion of hSIRPα; source: E. coli XL-1, purified (IMAC, SEC); not shown: His tag (from the IMAC purification)) VHH: HVQLVESGGGLVQVGDSLRLSCAPSGRTFRAYAMAWFRQAPGKEREFVAAIRWIGGTPSYKDSVKGRFTISRDNARNTFYLQMNSLEPQDTGVYYCAAEETQKGSGLGHDGRHYDYWGQGTPVTVSS")
"binds"
>>> recorded_result("hSIRPα Nb S12 (VHH, selected against the entire extracellular portion of hSIRPα; source: E. coli XL-1, purified (IMAC, SEC); not shown: His tag (from the IMAC purification)) VHH: QVQLVESGGGLVQPGGSLRLSCLVSGFSSSYYAIGWFRQAPGKEREGVSCITRSGDTTNYADSVKGRFTISRDDARNTVYLQMNSLKTEDTAVYSCALWAWAGSGRLRCTASEYGHWGQGTQVTVSS")
"binds"
>>> recorded_result("hSIRPα-S36 Nb (VHH, selected against the entire extracellular portion of hSIRPα; also called Nb S36; original S36 Nb; source: E. coli XL-1, purified (IMAC, SEC); not shown: His tag (from the IMAC purification)) VHH: EVQLVESGGGLVQPGGSLRLSCAASGFTLDYYAIGWFRQVPGKEREGVSCISSDGGGNTYYADSVKGRFTISRDNAKNTVYLQMNSLKPEDSAVYSCAAGPTYYSGSYCRDPHSDYDYWGQGTQVTVSS")
"binds"
